Assay: in vitro
Conditions: human, hela cells, % viability
property_name: viability at 28.5 h, 10 µM (%)
Give a bare numeral; the unit % is implied.

See these solved cases before continuing.
> print(dat)
                                    compound  value.reported
 1     CCc1[nH]c2ccc(C(=O)NCCn3ccnc3C)cc2c1C            96.4
 2  CN1CCN(c2ccc(NC(=O)c3ccc(OCc4ccccc4)cc3)cc2)CC1            99.6
 3  CCc1cccc(CC)c1NC(=O)CC1SC(NCc2ccc(C)cc2)=NC1=O (centres unmarked)             118
 4  O=c1[nH]c(=O)c2cc(S(=O)(=O)N3CCN(c4ccccn4)CC3)ccc2[nH]1             112
 5  COc1ccc(Cl)cc1NC(=O)CN(c1ccccc1)S(=O)(=O)c1ccc(Cl)cc1             105
 6  Cn1c(=O)c2c(nc(CN3CCOCC3)n2CCc2ccccc2)n(C)c1=O            89.3
 7      O=C1/C(=C/NNc2nc3ccccc3s2)Sc2ccccc21            96.4
 8  Cc1cc(N)n(-c2nc3c(cnn3-c3ccc(C)c(C)c3)c(=O)[nH]2)n1            97.8
 9      COc1ccc(-c2cnc(N3CCOCC3)c3nccn23)cc1            87.2
10  Cc1cc(OCC(=O)N(C)C)c2c3c(c(=O)oc2c1)CCCC3            96.3

## Task Entry under review: CCN(C(=O)c1ccc(C)nc1)[C@H]1CCO[C@@H](c2cccc(-c3cc(F)cc(F)c3)c2)C1 . Reported viability at 28.5 h, 10 µM?
## Result 91

## Task Here is the next compound: c1ccc(C(CC2CCCCC2)NCc2cccnc2)cc1 (centres unmarked)
## Result 96.3

## Task Moving on to the next compound: CCc1nc(-c2ccc(N(C)C)nc2)n(C)n1
## Result 90.6

## Task Query Cc1onc(-c2ccccc2)c1C(=O)NCc1ccccc1 next
## Result 99.4

## Task // repeat for COc1ccc(CCN2C(=O)CC(C(=O)O)S/C2=N\c2ccc(Cl)cc2)cc1OC (centres unmarked) and report
## Result 93.9

## Task Next up: COC(=O)CN1C(=O)S/C(=C/c2cc(C)n(-c3ccc4ncccc4c3)c2C)C1=O
## Result 121

## Task Same for O=C(CNC(=O)c1ccncc1)N/N=C/c1c(O)ccc2ccccc12
## Result 77

====

Assay: in vitro
Conditions: human, hela cells, % viability
Output 1 for records whose viability at 28.5 h, 10 µM is lower than 90%, 0 for records at or above 90%.

Worked examples, 3 molecules total:
> print(dat)
                                   molecule  classification
1  O=C(Cn1cc(Br)ccc1=O)NC1CCCN(Cc2ccccc2)C1 (stereo not shown)               1
2  Cc1c(Cl)ccc2c(C(=O)NCCCn3cc(Br)cn3)cc(-c3ccncc3)nc12               0
3         COc1ccc(C2(C(=O)NCc3cccs3)CC2)cc1               0

## Task Does this molecule meet the criterion viability at 28.5 h, 10 µM < 90%? O=C(NC(Cc1ccsc1)c1cccnc1)C1CCOCC1 (stereo not shown)
## Result 0

## Task Field entry: O=C(O)CCSC(CC(=O)c1ccccc1)c1ccc(Cl)cc1 (stereo not shown)
## Result 0

## Task // next record CN(C)c1nc(-c2ccc3c(c2)CCCN3S(C)(=O)=O)cs1
## Result 1

## Task # repeat for CC(C)[C@@H](CO)Nc1nc(-c2cncnc2)cnc1N
## Result 0

## Task Next molecule up: OC(c1cccs1)C1CCN(Cc2cnn(-c3ccccc3)c2)CC1 (stereo not shown)
## Result 0
